System: LOX IMVI melanoma
Assay: NCI tumour cell line growth inhibition, 48 h
Consider the following compounds; for each one, report its TGI.

Some compounds with recorded TGI:
O=c1[nH]c(=O)n(C2OC(CO)C(O)C2O)cc1OCCCc1ccccc1 (stereo not drawn): > 100 µM
CCCCN(C)/N=N/c1nc[nH]c1C(N)=O: > 100 µM

Could I get TGI for every one of these entries?
1. C#CCOC(=O)c1ccc(OC(C)=O)cc1
2. NC(=S)NC/C=C/Cl
3. Cc1cccc(C(=O)O)c1C(=O)c1cccc2ccccc12
4. COc1ccccc1S(=O)(=O)Nc1ccc2c3c(cc(CCC(=O)NCCCCNc4cccc5c4C(=O)N(C4CCC(=O)NC4=O)C5=O)cc13)C(=O)N2C (stereo not drawn)
5. O=C(O)/C(Cc1ccnc2ccccc12)=N\O
6. COCCOc1cc(C)cc(/C=C(C)/C=C/C2=C(C)CCCC2(C)C)n1
7. COC(=O)Nc1nc2ccc(NC(=O)c3ccc(I)cc3)cc2[nH]1

> 100 µM
> 100 µM
> 100 µM
> 100 µM
> 100 µM
> 100 µM
> 100 µM
